biological target: D2R (Homo sapiens, UniProt P14416); test: cell-based; conditions: EC50, Gαi1 recruitment to D2R, nanoBRET, Gαi1
Sequence (P14416 whole entry): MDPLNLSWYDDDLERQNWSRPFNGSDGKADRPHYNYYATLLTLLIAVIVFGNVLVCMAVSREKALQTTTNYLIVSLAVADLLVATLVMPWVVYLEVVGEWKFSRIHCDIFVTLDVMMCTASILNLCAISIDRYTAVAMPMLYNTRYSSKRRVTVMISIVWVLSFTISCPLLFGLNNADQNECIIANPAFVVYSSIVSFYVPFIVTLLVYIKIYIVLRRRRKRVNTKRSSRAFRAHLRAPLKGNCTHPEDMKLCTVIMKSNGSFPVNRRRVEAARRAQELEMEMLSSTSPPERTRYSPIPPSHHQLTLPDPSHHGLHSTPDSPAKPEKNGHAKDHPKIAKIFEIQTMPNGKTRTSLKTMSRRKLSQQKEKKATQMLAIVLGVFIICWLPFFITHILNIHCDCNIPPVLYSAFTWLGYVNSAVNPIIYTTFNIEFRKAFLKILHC

- compound: "CC(C)C[C@H]1C(=O)N2CCC[C@H]2[C@]2(O)O[C@](NC(=O)[C@@H]3C=C4c5cccc6[nH]c(Br)c(c56)C[C@H]4N(C)C3)(C(C)C)C(=O)N12 [Bromocriptine]"
  EC50 [nM]: 104

====

target: α2A-AR (Rattus norvegicus); experiment: cell-based; details: EC50, GαoB recruitment to α2A-AR, nanoBRET, GαoB
Sequence (P22909 whole entry): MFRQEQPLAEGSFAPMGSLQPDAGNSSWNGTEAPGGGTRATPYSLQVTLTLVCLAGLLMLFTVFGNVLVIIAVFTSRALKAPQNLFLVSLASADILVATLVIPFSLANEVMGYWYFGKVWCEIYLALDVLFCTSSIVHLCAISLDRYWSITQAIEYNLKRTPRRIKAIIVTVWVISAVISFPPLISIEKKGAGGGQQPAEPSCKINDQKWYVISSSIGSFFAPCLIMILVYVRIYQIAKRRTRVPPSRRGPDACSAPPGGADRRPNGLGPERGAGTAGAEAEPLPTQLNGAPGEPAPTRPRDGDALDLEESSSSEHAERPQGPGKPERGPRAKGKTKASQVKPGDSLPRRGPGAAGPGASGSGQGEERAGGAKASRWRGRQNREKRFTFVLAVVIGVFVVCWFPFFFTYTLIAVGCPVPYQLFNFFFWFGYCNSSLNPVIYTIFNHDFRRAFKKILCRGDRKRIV

- smilesData: "NCCc1ccc(O)c(O)c1"
  EC50: "945 nM"
